ASSAY INFO: Single-dose pharmacokinetics in healthy subjects
Format: in vivo, human
MEASUREMENT CONDITIONS: human, plasma, oral, 150 mg
ASSAY ENDPOINT: Tmax (h)

MOLECULE SMILES | EXPERIMENTAL RESULT
CCn1c(C(=O)c2cc(C)cc(C#N)c2)c(C(C)C)c(=O)[nH]c1=O | 2

* * *

Tested on: CYP3A
ASSAY INFO: CYP3A enzyme activity
Assay type: in vitro ADME
MEASUREMENT CONDITIONS: human, primary human hepatocytes, probe testosterone

MOLECULE SMILES | ASSAY TARGET | fold induction at 3 µM
CCn1c(C(=O)c2cc(C)cc(C#N)c2)c(C(C)C)c(=O)[nH]c1=O | CYP3A | 5

* * *

ASSAY INFO: Single-dose pharmacokinetics in healthy subjects
Assay type: in vivo, human
MEASUREMENT CONDITIONS: human, plasma, oral, 75 mg

MOLECULE SMILES | UNIT | half-life
CCn1c(C(=O)c2cc(C)cc(C#N)c2)c(C(C)C)c(=O)[nH]c1=O | h | 29.3

* * *

ASSAY INFO: Single-dose pharmacokinetics in healthy subjects
Format: in vivo, human
MEASUREMENT CONDITIONS: human, plasma, oral, 300 mg

MOLECULE SMILES | half-life
CCn1c(C(=O)c2cc(C)cc(C#N)c2)c(C(C)C)c(=O)[nH]c1=O | 31.2 h

* * *

ASSAY INFO: Single-dose pharmacokinetics in healthy subjects
Type: in vivo, human
MEASUREMENT CONDITIONS: human, plasma, oral, 300 mg

MOLECULE | Cmax (ng/mL)
CCn1c(C(=O)c2cc(C)cc(C#N)c2)c(C(C)C)c(=O)[nH]c1=O [KM-023] | 832

* * *

ASSAY INFO: Single-dose pharmacokinetics in healthy subjects
Assay type: in vivo, human
MEASUREMENT CONDITIONS: human, plasma, oral, 75 mg

COMPOUND | AUC(0-inf)
CCn1c(C(=O)c2cc(C)cc(C#N)c2)c(C(C)C)c(=O)[nH]c1=O [KM-023] | 11100 ng·h/mL

* * *

ASSAY INFO: Single-dose pharmacokinetics in healthy subjects
Format: in vivo, human
MEASUREMENT CONDITIONS: human, plasma, oral, 150 mg
ASSAY ENDPOINT: half-life (h)

MOLECULE SMILES | EXPERIMENTAL RESULT
CCn1c(C(=O)c2cc(C)cc(C#N)c2)c(C(C)C)c(=O)[nH]c1=O | 29.5

* * *

Test system: CYP3A
ASSAY INFO: CYP3A enzyme activity
Format: in vitro ADME
MEASUREMENT CONDITIONS: human, primary human hepatocytes, probe testosterone

MOLECULE | fold induction at 1 mM
CCC1(c2ccccc2)C(=O)NC(=O)NC1=O [Phenobarbital, reference compound] | 9.9
